target: MAP kinase-activated protein kinase 2 (Homo sapiens, UniProt P49137); test: Inhibition of MK2 using TAMRA-labeled peptide as substrate pre-incubated for 30 mins prior substrate addition measured after 30 mins incubation in dark using fluorescence polarization assay
Sequence (P49137 whole entry): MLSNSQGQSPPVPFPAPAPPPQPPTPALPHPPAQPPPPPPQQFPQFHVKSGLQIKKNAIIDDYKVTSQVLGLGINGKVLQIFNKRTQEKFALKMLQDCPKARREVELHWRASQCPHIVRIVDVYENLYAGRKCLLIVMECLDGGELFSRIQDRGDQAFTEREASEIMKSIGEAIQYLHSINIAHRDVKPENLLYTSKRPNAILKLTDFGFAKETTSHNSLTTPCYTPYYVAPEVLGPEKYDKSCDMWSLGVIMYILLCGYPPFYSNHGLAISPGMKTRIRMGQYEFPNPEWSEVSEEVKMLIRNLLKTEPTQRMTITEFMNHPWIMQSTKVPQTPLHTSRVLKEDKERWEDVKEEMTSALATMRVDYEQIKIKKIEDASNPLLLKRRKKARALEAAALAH
Measured endpoint: IC50 (nM)
Numeric only. Scale: nM

INSERT INTO measurements (input_smiles, readout_number) VALUES
  ('Fc1ccc(-c2cc3c(o2)-c2nncn2-c2ccc(N4CCNCC4)cc2C3)cc1', 15),
  ('Cc1cnc2n1-c1ccc(N3CCNCC3)cc1Cc1cc(-c3ccc(Cl)cc3)oc1-2', 9.2),
  ('Clc1ccc(-c2cc3c(o2)-c2nccn2-c2ccc(N4CCNCC4)cc2C3)cc1', 7),
  ('O=C1Nc2ccc(N3CCNCC3)cc2OCc2cc(-c3ccc(Cl)cc3)oc21', 110);

Name the reported IC50 value associated with the compound Cc1nnc2n1-c1ccc(N3CCNCC3)cc1Cc1cc(-c3ccc(Cl)cc3)oc1-2
880
